- experimental target: T1, His-MBP-Lin28TT (Homo sapiens, UniProt Q9H9Z2 32-187)
- T1 sequence: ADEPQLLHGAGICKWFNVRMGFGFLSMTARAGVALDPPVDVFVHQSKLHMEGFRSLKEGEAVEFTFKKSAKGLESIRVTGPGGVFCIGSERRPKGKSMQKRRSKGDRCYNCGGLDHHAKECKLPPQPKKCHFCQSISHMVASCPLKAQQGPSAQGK
- protocol description: fluorescence anisotropy; 250 mM NaCl; 50 uM ZnCl2; FA: 20 nM 5'-fluorescein RNA, 20 mM Tris-HCl pH 7.5, 50-750 mM NaCl (100 mM for the main miR-363 Kd), 10 mM beta-mercaptoethanol, 50 uM ZnCl2, 0.01% Tween 20, 2
recorded endpoint: pKd
Answers are plain numbers, as −log10 of the molar value.

# input binder: GAUGCAAUUUUGAUGAGUAUCAUAGGAG (structured_RNA) [miR-363 19-46] ; wanted: its pKd 8.18
